System: MTT (mouse pheochromocytoma)
Experiment: IC50 of cell viability (ATP content)
Conditions: (24 or 48 h)
MEASURED PARAMETER: IC50 of cell viability

Tell me the measured IC50 of cell viability of `C\C1=C\C(=O)OC2=CC(=CC=C12)OCC#C` , please. > 46 µM

Entry under review: C[S+](C)CC[C@H](N)C(=O)O [METHYLMETHIONINE SULFONIUM CHLORIDE] . Reported IC50 of cell viability? > 46 µM

Quick one: IC50 of cell viability of `COP(=S)(OC)Oc1ccc(Sc2ccc(OP(=S)(OC)OC)cc2)cc1` ? > 46 µM

Returns the measured IC50 of cell viability for the input compound. Input: `Cc1cccc(C)c1NC(=O)c1ccccc1C(=O)O` > 46 µM

Using the record for CCN(CC)CCNC(=O)c1cc(Br)c(N)cc1OC [BROMOPRIDE] , report its IC50 of cell viability. > 46 µM

Request the reported IC50 of cell viability associated with `COC(=O)\C1=C(/C)N\C(=C(/C1C2=C(C=CC=C2)[N+]([O-])=O)C(=O)OC)C` > 46 µM

Reported IC50 of cell viability for `Cc1cc2c(cc1[S+](N)(=O)[O-])[S+](=O)([O-])CCC2` : what is it? > 46 µM

For the compound `Clc1ccc([C@H](Cn2ccnc2)OCc2c(Cl)cccc2Cl)c(Cl)c1` , what IC50 of cell viability is on record? > 46 µM

Find the recorded IC50 of cell viability belonging to CC(C)OC(=O)C(\C(=O)OC(C)C)=C1\SC=CS1 [malotilate] and report it. > 46 µM

###

Tested on: MTT (mouse pheochromocytoma)
Test: IC50 of cell viability (ATP content)
Details: (24 or 48 h)
Could you please report measured IC50 of cell viability for the items listed next?

Could you tell me which IC50 of cell viability is on file for `Cc1ncc(CNC(=O)N(CCCl)N=O)c(N)n1` ? > 46 µM

Any idea what its IC50 of cell viability is? The molecule is C[C@@H](N)[C@@H](O)c1ccc(O)c(O)c1 [(-)3,4-DIHYDROXYNOREPHEDRINE] > 46 µM

Data request, read-out IC50 of cell viability, for CC(O)C(=O)O (centres undefined) > 46 µM

Param item = `COC(=O)[C@@H](N)CCCNC(=N)N[N+](=O)[O-]` ; retrieve measured IC50 of cell viability. > 46 µM

Report IC50 of cell viability for `C#C[C@]1(O)CC[C@H]2[C@H]3[C@H](CC[C@@]21C)C1=C(CC(=O)CC1)C[C@@H]3C` please. > 46 µM

Given CC(=O)N[C@@H]1C(O)OC(CO)C(O)C1O (some centres undefined) , state its recorded IC50 of cell viability. > 46 µM

Which value of IC50 of cell viability has been reported for `CCCCCc1ccc(C)cc1O` in the records? > 46 µM

Give its IC50 of cell viability value. Item: CCCCc1cc2c(=O)c(C(=O)OC)c[nH]c2cc1OCc1ccccc1 [NEQUINATE] > 46 µM

Recorded IC50 of cell viability for CC(=O)NC1[C@H](O)C[C@@](O)(C(=O)O)O[C@H]1[C@H](O)[C@H](O)CO (some centres undefined) , please? > 46 µM

###

System: MTT (mouse pheochromocytoma)
Test: IC50 of cell viability (ATP content)
Conditions: (24 or 48 h)
Counter-ions that a name gives are not always drawn.
MEASURED PARAMETER: IC50 of cell viability

Fill in the blank: the reported IC50 of cell viability of CCCCCCCCCCCCCCCC(=O)OC[C@H](O)[C@H]1OC[C@@H](O)[C@@H]1O [SORBITAN MONOPALMITATE] is ____. > 46 µM

Would you mind telling me what IC50 of cell viability value was observed for Nc1nc(/C(=C/CC(=O)O)C(=O)NC2C(=O)N3C(C(=O)O)=CCSC23)cs1 (stereo not given) [CEFTIBUTEN] ? > 46 µM

Consider the compound CC(C)CCON=O [Isoamyl nitrite] and give its measured IC50 of cell viability. > 46 µM

Given NNC(=O)c1ccncc1 [Isoniazid] , state its recorded IC50 of cell viability. > 46 µM

Which IC50 of cell viability value belongs to NC(N)=Nc1nc(CSCC/C(N)=N/[S+](N)(=O)[O-])cs1 [FAMOTIDINE] ? > 46 µM

Form field: reported IC50 of cell viability of Cl.CN1CCCC(CC1)N2\N=C(CC3=CC=C(Cl)C=C3)/C4=CC=CC=C4C2=O (stereo not given) [AZELASTINE HYDROCHLORIDE] > 46 µM

Quick check: IC50 of cell viability of OCC(O)C(O)C(O)C(O)CO (stereo not given) [galactitol] ? > 46 µM

Given CC(=O)N[C@@H](Cc1ccc(O)cc1)C(=O)O [N-ACETYL-TYROSINE] , state its recorded IC50 of cell viability. > 46 µM

Form field: reported IC50 of cell viability of CCCCCCCCCC(=O)O[C@H]1CC[C@H]2[C@@H]3CCC4=CC(=O)CC[C@]4(C)[C@H]3CC[C@]12C [TESTOSTERONE DECANOATE] > 46 µM

Item NC(=O)c1ncn([C@@H]2O[C@H](CO)[C@@H](O)[C@H]2O)c1O [Mizoribine] has what recorded IC50 of cell viability? > 46 µM

Item COc1c2c(cc3c1OCO3)CCN(C)C2 [Hydrocotarnine hydrobromide] has what recorded IC50 of cell viability? > 46 µM

What does the record list as IC50 of cell viability for CC(=O)Nc1ccc(O)cc1 [Acetaminophen (4-hydroxyacetanilide)] ? > 46 µM

For CO/N=C(\C(=O)NC1C(=O)N2C(C(=O)OCOC(=O)C(C)(C)C)=C(/C=C\c3scnc3C)CSC12)c1csc(N)n1 (stereo not given) [CEFDITORIN PIVOXIL] , what is its reported IC50 of cell viability? > 46 µM

Dear colleague, I am looking for the recorded IC50 of cell viability of the following compound: NC(=O)C1c2ccccc2CCc2ccccc21 [Cyheptamide] > 46 µM

What value of IC50 of cell viability has been reported for the following compound? COc1cc2c(cc1OC)C(=O)C(CC1CCN(Cc3ccccc3)CC1)C2 (stereo not given) [DONEPEZIL HYDROCHLORIDE] > 46 µM

Returns the measured IC50 of cell viability for the input compound. Input: COc1ccc(OC)c([C@H](O)CNC(=O)CN)c1 [Midodrine hydrochloride] > 46 µM

Reported IC50 of cell viability for N[S+](=O)([O-])c1cc2c(cc1Cl)N[C@@H](C(Cl)Cl)N[S+]2(=O)[O-] [Trichlormethiazide] : what is it? > 46 µM

Would you kindly share the measured IC50 of cell viability for CCCCOc1ccc(OCCCN2CCOCC2)cc1 [Pramoxine hydrochloride] ? > 46 µM

For O=C(c1ccc(F)cc1)C1CCN(CCn2c(=O)[nH]c3ccccc3c2=O)CC1 [KETANSERIN] , what is its reported IC50 of cell viability? > 46 µM

// query IC50 of cell viability value for entry OC[C@H]1O[C@@H]2O[C@H]3[C@H](O)[C@@H](O)[C@@H](O[C@H]4[C@H](O)[C@@H](O)[C@@H](O[C@H]5[C@H](O)[C@@H](O)[C@@H](O[C@H]6[C@H](O)[C@@H](O)[C@@H](O[C@H]7[C@H](O)[C@@H](O)[C@@H](O[C@H]8[C@H](O)[C@@H](O)[C@@H](O[C@H]1[C@H](O)[C@H]2O)O[C@@H]8CO)O[C@@H]7CO)O[C@@H]6CO)O[C@@H]5CO)O[C@@H]4CO)O[C@@H]3CO [beta-Cyclodextrin] > 46 µM

Field request: IC50 of cell viability | item: COc1cc([C@H]2c3cc4c(cc3[C@@H](O[C@@H]3O[C@H]5CO[C@@H](C)O[C@@H]5[C@@H](O)[C@H]3O)[C@@H]3COC(=O)[C@H]23)OCO4)cc(OC)c1O [Etoposide] > 46 µM

Fill blank: measured IC50 of cell viability of the compound CO/N=C(/C(=O)N[C@@H]1C(=O)N2C(C(=O)[O-])=CCS[C@H]12)c1csc(N)n1 [CEFTIZOXIME SODIUM] is ____. > 46 µM

Look up IC50 of cell viability for this compound: O=C(NCCc1c[nH]c2ccccc12)c1cccnc1 [NICOTREDOLUM] > 46 µM

Endpoint output: IC50 of cell viability of CCC(COC(=O)c1cc(OC)c(OC)c(OC)c1)(c1ccccc1)N(C)C.O=C(O)/C=C\C(=O)O (stereo not given) [TRIMEBUTINE MALEATE] . Value? > 46 µM

Item under review: Cn1nnnc1SCC1=C(C(=O)O)N2C(=O)[C@@H](NC(=O)[C@H](OC=O)c3ccccc3)[C@H]2SC1 [Cefamandole nafate] . Reported IC50 of cell viability? > 46 µM

Param item = N[C@@H](C(=O)N[C@H]1[C@H]2SC\C(=C(/N2C1=O)C(O)=O)Cl)C3=CC=CC=C3 [Cefaclorum] ; retrieve measured IC50 of cell viability. > 46 µM

May I ask what IC50 of cell viability has been recorded for C[C@H]1C[C@H]2[C@@H]3CCC4=CC(=O)C=C[C@]4(C)[C@@]3(F)[C@@H](O)C[C@]2(C)[C@@]1(O)C(=O)CO [Betamethasone] ? > 46 µM

Quick one: IC50 of cell viability of C[C@H](N)[C@@H](O)c1ccccc1 [Phenylpropanolamine hydrochloride] ? > 46 µM

Fill in the blank: the reported IC50 of cell viability of C=CC(=O)NCNC(=O)C=C [N,N'-Methylenebis(acrylamide)] is ____. > 46 µM

Param item = CC12CCC(C1)C(C)(C)C2=O (stereo not given) [FENCHONE] ; retrieve measured IC50 of cell viability. > 46 µM
